# assaySystem: BRAF V600E (Homo sapiens, UniProt P15056, V600E)
# Construct: endogenous C-terminal HiBiT fusion tag on BRAF V600E allele; endogenous in cells; host or cells: A375 clone 1F10 (CRISPR-Cas9 knock-in of the HiBiT tag; parental A375 from ATCC)
# Sequence (P15056 whole entry V600E, the tested form may be a part): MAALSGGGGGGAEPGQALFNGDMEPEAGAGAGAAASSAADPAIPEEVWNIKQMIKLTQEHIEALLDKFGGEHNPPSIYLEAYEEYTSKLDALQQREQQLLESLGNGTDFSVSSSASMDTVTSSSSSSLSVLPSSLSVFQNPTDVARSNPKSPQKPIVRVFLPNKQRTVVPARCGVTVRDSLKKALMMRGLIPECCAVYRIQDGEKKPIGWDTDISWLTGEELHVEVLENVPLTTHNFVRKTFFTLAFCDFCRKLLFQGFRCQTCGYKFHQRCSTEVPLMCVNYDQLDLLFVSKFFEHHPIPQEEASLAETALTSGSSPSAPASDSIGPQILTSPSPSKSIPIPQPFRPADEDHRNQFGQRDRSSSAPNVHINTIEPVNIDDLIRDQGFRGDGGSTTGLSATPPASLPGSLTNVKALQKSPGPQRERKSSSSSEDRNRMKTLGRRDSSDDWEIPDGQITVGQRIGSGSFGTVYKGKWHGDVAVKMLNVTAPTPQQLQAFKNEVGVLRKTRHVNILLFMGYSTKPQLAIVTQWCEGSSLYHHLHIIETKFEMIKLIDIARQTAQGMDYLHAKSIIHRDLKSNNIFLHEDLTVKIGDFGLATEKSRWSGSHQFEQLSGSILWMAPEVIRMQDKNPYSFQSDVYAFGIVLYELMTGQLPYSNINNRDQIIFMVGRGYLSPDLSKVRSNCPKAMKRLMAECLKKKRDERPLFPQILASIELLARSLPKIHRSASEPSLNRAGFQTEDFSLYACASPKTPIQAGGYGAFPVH
# experimentNotes: BRAF HiBiT degradation assay, C-terminal HiBiT-tagged BRAF V600E A375 cells (clone 1F10), Nano-Glo HiBiT Lytic assay
# Format: cell-based
# testConditions: A-375; A375 (BRAF V600E, Class 1); observed Dmax, % protein degraded relative to DMSO control
Listing of entries alongside the reported Dmax.

// known answers, use as guide
>>> endpointvalue("O=C1CCC(c2ccc(N3CCC(CN4CCN(c5ccc(-n6cc(-c7cc(Cl)cc(NS(=O)(=O)N8CCCC8)c7F)c(-c7ccncc7)n6)cc5)CC4)CC3)cc2F)C(=O)N1 (racemic) [Compound 348]")
"> 70%"
>>> endpointvalue("O=C1CC[C@H](c2ccc(N3CCC(CN4CCN(c5ccc(-n6cc(-c7cc(F)cc(NS(=O)(=O)N8CCCC8)c7F)c(-c7ccncc7)n6)c(F)c5)CC4)CC3)cc2)C(=O)N1 [Compound 340]")
"> 70%"

Let us examine a further case.
Ask | Lab note: need Dmax with BRAF V600E (Homo sapiens, UniProt P15056, V600E) for entry O=C1CCN(c2ccc(N3CCC(CN4CCN(c5ccc(-n6cc(-c7cc(Cl)cc(NS(=O)(=O)N8CC[C@@H](F)C8)c7F)c(-c7ccncc7)n6)nc5)CC4)CC3)cc2)C(=O)N1 [Compound 295] , please look it up.
Reply | > 70%

---

# assaySystem: BRAF D594G (Homo sapiens, UniProt P15056, D594G)
# Construct: Horizon Discovery (HCT-116 BRAF−/− cells); host or cells: HCT-116 BRAF−/− cells, clone 63, lentiviral transduction
# Sequence (P15056 whole entry D594G): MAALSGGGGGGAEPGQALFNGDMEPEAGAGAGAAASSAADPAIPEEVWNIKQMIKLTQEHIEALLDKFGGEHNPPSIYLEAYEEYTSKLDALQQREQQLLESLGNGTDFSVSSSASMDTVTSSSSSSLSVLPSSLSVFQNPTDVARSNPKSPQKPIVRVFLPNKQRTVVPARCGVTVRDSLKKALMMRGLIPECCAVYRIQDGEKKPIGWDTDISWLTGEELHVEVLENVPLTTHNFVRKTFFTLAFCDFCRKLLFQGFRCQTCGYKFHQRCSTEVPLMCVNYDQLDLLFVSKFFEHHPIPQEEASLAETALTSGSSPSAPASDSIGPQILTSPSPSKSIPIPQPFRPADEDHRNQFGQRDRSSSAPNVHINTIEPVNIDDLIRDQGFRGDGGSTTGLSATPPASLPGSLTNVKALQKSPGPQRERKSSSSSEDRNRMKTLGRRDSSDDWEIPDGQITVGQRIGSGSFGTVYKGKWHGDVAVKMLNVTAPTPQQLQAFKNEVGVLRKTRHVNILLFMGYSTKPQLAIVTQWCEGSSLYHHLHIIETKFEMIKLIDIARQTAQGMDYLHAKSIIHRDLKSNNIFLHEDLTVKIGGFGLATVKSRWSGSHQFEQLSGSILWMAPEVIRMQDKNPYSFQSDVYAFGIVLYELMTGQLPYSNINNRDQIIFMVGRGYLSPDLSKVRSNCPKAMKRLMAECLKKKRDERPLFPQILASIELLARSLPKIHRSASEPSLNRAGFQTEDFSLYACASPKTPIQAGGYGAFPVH
# experimentNotes: BRAF HiBiT degradation assay, C-terminal HiBiT-tagged BRAF D594G overexpressed in HCT-116 BRAF−/− cells (clone 63), Nano-Glo HiBiT Lytic assay
# Assay type: cell-based
# testConditions: HCT-116; BRAF D594G; percentage protein degraded at maximal compound effect relative to DMSO
Listing of entries alongside the reported Dmax.

>>> endpointvalue("CCCS(=O)(=O)Nc1cccc(-c2nc(C(C)(C)C)sc2-c2ccnc(NC3CC4(C3)CN(CC3CCN(c5ccc(C(=O)NC6CCC(=O)NC6=O)cc5)CC3)C4)n2)c1F (racemic)")
"< 30%"
>>> endpointvalue("CCCS(=O)(=O)Nc1cccc(-c2nc(C(C)(C)C)sc2-c2ccnc(Nc3cnn(CC4CCN(C[C@H]5CC[C@H](Oc6ccc(C7CCC(=O)NC7=O)cc6)CC5)CC4)c3)n2)c1F (mixture of isomers)")
"30 to 70%"
>>> endpointvalue("CCCS(=O)(=O)Nc1cccc(-c2nc(C(C)(C)C)sc2-c2ccnc(Nc3cccc(C4CCN(CC[C@@H]5CCN(c6ccc(C7CCC(=O)NC7=O)cn6)C5)CC4)c3)n2)c1F (mixture of isomers)")
"< 30%"
>>> endpointvalue("CCCS(=O)(=O)Nc1cccc(-c2nc(C(C)(C)C)sc2-c2ccnc(Nc3ccc(C4CCN(CC5CCN(c6ccc(C(=O)NC7CCC(=O)NC7=O)cc6)CC5)CC4)cc3)n2)c1F (racemic)")
"< 30%"

Ask | Dear colleague, I am looking for the recorded Dmax of the following compound: CCCS(=O)(=O)Nc1cccc(-c2nc(C3CCN(C(=O)C4CCN(CC5CCN(c6ccc(C7CCC(=O)NC7=O)cn6)CC5)CC4)CC3)sc2-c2ccncc2)c1F (racemic)
Reply | 30 to 70%
